Target: AMPK
Experiment: AMPK activation, enzyme-linked immunosorbent assay
Type: biochemical
Details: Table 14, compounds of Table 7
Protocol: Compounds of Table 1 were assayed for their ability to activate AMPK using an enzyme-linked immunosorbent assay. Compounds of Table 2 were assayed for their ability to activate AMPK using an enzyme-linked immunosorbent assay. Compounds of Table 3 were assayed for their ability to activate AMPK using an enzyme-linked immunosorbent assay. Compounds of Table 4 were assayed for their ability to activate AMPK using an enzyme-linked immunosorbent assay. […]
quantityKind: EC50

Previously resolved entries follow.
COc1ccc(CN2CCC(NC(=O)c3ccc(C(=O)N4CCC(Oc5ccc6c(c5)ncn6C)CC4)nc3)CC2)cc1 | 1000 to 10000 nM
N#Cc1ccc(CN2CCC(NC(=O)c3ccc(C(=O)N4CCC(C(=O)c5ccc(N6CCOCC6)cc5)CC4)nc3)[C@H](F)C2)cc1 (stereo partly drawn) | < 1000 nM
N#Cc1ccc(O[C@H]2CC[C@@H](NC(=O)c3ccc(C(=O)N4CCC(C(=O)c5ccc(N6CCCC6)cc5)CC4)nc3)CC2)cc1 | < 1000 nM
N#Cc1ccc(CN2CCC(NC(=O)c3ccc(C(=O)N4CCC(Oc5ccc(S(=O)(=O)C6CC6)cc5)CC4)nc3)[C@H](F)C2)cc1 (stereo partly drawn) | 1000 to 10000 nM
COc1ccc(C(=O)C2CCN(C(=O)c3ccc(C(=O)NC4CCN(Cc5ccc(-n6ccnc6)cc5)C[C@H]4F)cn3)CC2)cc1 (stereo partly drawn) | 1000 to 10000 nM

# evaluate next
**Query** Can you look up the measured EC50 of COc1ccc(C(=O)C2CCN(C(=O)c3ccc(C(=O)NC4CCN(Cc5cccc(C(F)(F)F)c5)C[C@H]4F)cn3)CC2)cc1 (stereo partly drawn) for me?
**Result** < 1000 nM
